The entries below are paired with their reported IC50.
# target system: Recombinant JAK1 (Homo sapiens)
# Construct: purchased Carna Biosciences
# method summary: JAK biochemical assay (LANCE Ultra TR-FRET), JAK1
# condition details: recombinant JAK1, TR-FRET; read-out: Biochemical Assay (μM) JAK1

Known results for molecules:
| molecule | target system | IC50 |
| --- | --- | --- |
| CC(C)OC(c1ccc(-n2cc(-c3ccnc4[nH]cnc34)cn2)nc1)C(F)(F)F (stereo not shown) | Recombinant JAK1 (Homo sapiens) | > 1 µM |
| O=C(NCC(F)(F)F)Nc1ncc(-c2ccnc3[nH]c(=O)[nH]c23)cn1 | Recombinant JAK1 (Homo sapiens) | > 10 µM |
| N#CC1CCN(C(=O)n2cc(-c3ccnc4[nH]cnc34)cn2)CC1 | Recombinant JAK1 (Homo sapiens) | > 1 µM |
| N#CC(C(=O)NCC(F)(F)F)c1ccc(-n2cc(-c3ccnc4[nH]cnc34)cn2)nc1 (stereo not shown) | Recombinant JAK1 (Homo sapiens) | > 0.1 µM |
| N#CC1CN(Cc2ccc(-n3cc(-c4ccnc5[nH]cnc45)cn3)nc2)C1 | Recombinant JAK1 (Homo sapiens) | > 0.5 µM |

Let us examine a further case.
What value of IC50 has been recorded for this entry: N#CCC(NC(=O)n1cc(-c2ccnc3[nH]c(=O)[nH]c23)cn1)C1CC1 (stereo not shown)
< 0.5 µM

* * *

# target system: Recombinant TYK2 (Homo sapiens)
# Construct: purchased Carna Biosciences
# Sequence (P29597 whole entry): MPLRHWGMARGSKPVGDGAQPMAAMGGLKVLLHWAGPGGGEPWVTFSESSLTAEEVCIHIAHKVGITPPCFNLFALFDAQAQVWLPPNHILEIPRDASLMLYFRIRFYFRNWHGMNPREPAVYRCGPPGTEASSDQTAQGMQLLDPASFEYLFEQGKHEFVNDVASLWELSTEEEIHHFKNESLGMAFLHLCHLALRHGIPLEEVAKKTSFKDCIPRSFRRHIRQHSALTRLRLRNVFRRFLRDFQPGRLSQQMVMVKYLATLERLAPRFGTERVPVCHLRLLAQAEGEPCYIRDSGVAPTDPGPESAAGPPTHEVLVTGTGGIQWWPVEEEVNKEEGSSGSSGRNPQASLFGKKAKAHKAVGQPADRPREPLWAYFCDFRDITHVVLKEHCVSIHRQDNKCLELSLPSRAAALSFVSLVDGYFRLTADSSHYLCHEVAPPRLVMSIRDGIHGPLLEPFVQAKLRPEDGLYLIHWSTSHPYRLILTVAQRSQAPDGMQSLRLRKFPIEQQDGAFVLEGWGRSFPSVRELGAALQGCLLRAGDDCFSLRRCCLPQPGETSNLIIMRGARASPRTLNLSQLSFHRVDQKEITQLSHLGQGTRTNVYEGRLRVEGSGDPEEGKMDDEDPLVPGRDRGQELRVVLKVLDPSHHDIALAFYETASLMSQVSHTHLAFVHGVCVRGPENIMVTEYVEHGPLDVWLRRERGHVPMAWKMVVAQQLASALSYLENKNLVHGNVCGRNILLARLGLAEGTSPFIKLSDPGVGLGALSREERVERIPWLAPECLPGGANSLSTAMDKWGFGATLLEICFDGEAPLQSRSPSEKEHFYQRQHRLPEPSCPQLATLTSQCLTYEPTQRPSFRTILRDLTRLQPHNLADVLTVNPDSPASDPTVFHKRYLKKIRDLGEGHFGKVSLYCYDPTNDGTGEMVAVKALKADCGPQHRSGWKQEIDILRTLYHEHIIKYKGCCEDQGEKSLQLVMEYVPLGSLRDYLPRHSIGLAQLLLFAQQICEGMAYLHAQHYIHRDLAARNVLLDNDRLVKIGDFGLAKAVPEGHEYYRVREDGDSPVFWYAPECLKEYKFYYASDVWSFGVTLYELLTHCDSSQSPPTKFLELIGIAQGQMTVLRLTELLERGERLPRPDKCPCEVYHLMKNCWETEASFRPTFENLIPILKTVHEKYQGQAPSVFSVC
# method summary: JAK biochemical assay (LANCE Ultra TR-FRET), TYK2
# condition details: recombinant TYK2, TR-FRET; read-out: Biochemical Assay (μM) TYK2
parameter: IC50

Known results for compounds:
| compound | endpoint result |
| --- | --- |
| CC1(C)CN(C(=O)N2CCN(c3ccnc4[nH]c(=O)[nH]c34)CC2)C1 [Example 1023] | > 10 µM |
| COC(c1ccc(-n2cc(-c3ccnc4[nH]cnc34)cn2)nc1)C(F)(F)F (centres unmarked) [Example 1119] | > 1 µM |
| CC(C)N1CCC([C@](O)(c2ccc(-n3cc(-c4ccnc5[nH]cnc45)cn3)nc2)C(F)(F)F)C1 (some centres unmarked) [Example 1226] | > 1 µM |
| CC(C)C(O)(c1ccc(-n2cc(-c3ccnc4[nH]cnc34)cn2)nc1)C(F)(F)F (centres unmarked) [Example 1129] | > 1 µM |

What value of IC50 has been recorded for this entry: CN1CCC(C(O)c2ccc(-n3cc(-c4ccnc5[nH]cnc45)cn3)nc2)CC1 (centres unmarked) [Example 1165]
> 1 µM

What value of IC50 has been recorded for this entry: CS(=O)(=O)CCC(O)(c1ccc(-n2cc(-c3ccnc4[nH]cnc34)cn2)nc1)C(F)(F)F (centres unmarked) [Example 1223]
0.39 µM

What value of IC50 has been recorded for this entry: c1cc(-c2cnn(Cc3cnco3)c2)c2nc[nH]c2n1 [Example 1077]
> 10 µM

What value of IC50 has been recorded for this entry: N#CCNC(=O)c1cnc(-n2cc(-c3ccnc4[nH]cnc34)cn2)nc1 [Example 1093]
> 10 µM

* * *

# target system: Recombinant JAK1 (Homo sapiens, UniProt P23458)
# Construct: purchased Carna Biosciences
# Sequence (P23458 whole entry): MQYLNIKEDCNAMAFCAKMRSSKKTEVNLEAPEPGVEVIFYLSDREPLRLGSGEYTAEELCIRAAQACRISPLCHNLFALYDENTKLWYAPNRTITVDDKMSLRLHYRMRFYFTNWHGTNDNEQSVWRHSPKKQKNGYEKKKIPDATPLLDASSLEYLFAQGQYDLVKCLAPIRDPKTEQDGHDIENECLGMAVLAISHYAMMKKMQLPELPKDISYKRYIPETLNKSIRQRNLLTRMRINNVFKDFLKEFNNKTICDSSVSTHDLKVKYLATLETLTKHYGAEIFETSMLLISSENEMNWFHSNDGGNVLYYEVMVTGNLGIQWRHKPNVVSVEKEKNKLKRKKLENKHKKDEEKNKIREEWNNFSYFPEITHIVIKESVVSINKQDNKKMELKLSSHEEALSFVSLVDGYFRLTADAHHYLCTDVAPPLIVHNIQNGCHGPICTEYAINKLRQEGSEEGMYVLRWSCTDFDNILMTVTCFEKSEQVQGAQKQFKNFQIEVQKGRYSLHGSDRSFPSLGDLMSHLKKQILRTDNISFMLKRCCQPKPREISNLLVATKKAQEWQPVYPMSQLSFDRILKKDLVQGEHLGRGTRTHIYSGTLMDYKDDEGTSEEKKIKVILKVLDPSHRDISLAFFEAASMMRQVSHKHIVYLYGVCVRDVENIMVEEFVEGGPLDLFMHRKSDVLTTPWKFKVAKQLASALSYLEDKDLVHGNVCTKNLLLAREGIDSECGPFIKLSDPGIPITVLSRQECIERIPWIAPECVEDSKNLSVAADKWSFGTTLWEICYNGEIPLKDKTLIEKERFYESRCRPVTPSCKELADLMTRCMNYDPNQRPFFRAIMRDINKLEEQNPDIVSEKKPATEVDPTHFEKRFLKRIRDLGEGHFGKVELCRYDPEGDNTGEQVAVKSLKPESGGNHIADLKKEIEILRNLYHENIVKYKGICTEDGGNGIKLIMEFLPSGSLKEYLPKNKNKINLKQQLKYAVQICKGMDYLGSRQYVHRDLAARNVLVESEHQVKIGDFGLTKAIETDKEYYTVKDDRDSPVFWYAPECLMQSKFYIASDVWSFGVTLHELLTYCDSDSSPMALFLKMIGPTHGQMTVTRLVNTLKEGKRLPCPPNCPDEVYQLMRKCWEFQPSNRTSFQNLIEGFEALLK
# method summary: JAK biochemical assay (LANCE Ultra TR-FRET), JAK1
# condition details: recombinant JAK1, TR-FRET; read-out: Biochemical Assay (μM) JAK1
The entries below are paired with their reported IC50.

| compound | IC50 |
| --- | --- |
| CS(=O)(=O)N1CC(C(C#N)c2ccc(-n3cc(-c4ccnc5[nH]cnc45)cn3)nc2)C1 (centres unmarked) | > 0.5 µM |
| CS(=O)(=O)N1CCC(NC(=O)N2CCN(c3ccnc4[nH]c(=O)[nH]c34)CC2)CC1 | > 10 µM |
| N#CC1CCN(C(=O)n2cc(-c3ccnc4[nH]cnc34)cn2)C1 (centres unmarked) | > 1 µM |

What value of IC50 has been recorded for this entry: "CNC(=O)C[C@@H](c1ccc(-n2cc(-c3ccnc4[nH]cnc34)cn2)nc1)C(F)(F)F"
< 0.1 µM

What value of IC50 has been recorded for this entry: CC(NC(=O)n1cc(-c2ccnc3[nH]c(=O)[nH]c23)cn1)C(=O)N1CC(C#N)C1 (centres unmarked)
> 1 µM

What value of IC50 has been recorded for this entry: CS(=O)(=O)NC(c1ccc(-n2cc(-c3ccnc4[nH]cnc34)cn2)nc1)C(F)(F)F (centres unmarked)
< 0.1 µM

What value of IC50 has been recorded for this entry: "O=C(Nc1ccc(-c2ccnc3[nH]c(=O)[nH]c23)cc1)N1CCOCC1"
> 1 µM

What value of IC50 has been recorded for this entry: "c1cc(-c2cnn(Cc3cnco3)c2)c2nc[nH]c2n1"
> 1 µM

* * *

# target system: Recombinant JAK2 (Homo sapiens)
# Construct: purchased Carna Biosciences
# Sequence (O60674 whole entry): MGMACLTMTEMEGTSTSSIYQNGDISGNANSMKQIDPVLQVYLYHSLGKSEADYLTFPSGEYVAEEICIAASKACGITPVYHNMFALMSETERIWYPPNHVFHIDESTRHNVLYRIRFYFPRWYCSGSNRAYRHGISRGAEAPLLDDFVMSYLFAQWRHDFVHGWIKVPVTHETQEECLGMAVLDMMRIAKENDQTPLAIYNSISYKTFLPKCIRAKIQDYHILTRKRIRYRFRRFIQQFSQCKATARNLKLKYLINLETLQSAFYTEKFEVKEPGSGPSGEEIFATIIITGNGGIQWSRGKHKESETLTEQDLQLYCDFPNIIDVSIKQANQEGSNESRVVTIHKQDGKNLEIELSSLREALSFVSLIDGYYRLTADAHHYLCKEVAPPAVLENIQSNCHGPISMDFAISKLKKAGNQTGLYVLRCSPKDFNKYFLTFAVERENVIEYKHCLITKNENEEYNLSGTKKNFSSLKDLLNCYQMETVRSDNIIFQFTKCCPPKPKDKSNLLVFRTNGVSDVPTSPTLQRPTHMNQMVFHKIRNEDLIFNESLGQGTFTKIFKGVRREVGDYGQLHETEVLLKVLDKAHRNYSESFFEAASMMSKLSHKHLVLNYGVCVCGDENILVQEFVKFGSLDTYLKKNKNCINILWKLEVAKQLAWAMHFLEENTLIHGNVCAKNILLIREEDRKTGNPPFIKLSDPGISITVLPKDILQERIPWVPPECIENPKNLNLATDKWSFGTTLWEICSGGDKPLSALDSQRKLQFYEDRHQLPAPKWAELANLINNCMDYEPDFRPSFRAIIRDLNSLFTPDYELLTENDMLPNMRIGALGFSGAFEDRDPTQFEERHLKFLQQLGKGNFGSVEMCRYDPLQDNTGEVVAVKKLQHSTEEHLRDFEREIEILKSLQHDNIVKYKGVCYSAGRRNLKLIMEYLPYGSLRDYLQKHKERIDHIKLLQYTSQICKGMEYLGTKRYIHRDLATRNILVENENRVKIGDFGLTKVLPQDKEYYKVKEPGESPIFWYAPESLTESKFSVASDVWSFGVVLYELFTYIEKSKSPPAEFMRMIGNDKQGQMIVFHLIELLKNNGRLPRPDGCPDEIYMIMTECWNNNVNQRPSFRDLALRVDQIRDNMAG
# method summary: JAK biochemical assay (LANCE Ultra TR-FRET), JAK2
# condition details: recombinant JAK2, TR-FRET; read-out: Biochemical Assay (μM) JAK2
The entries below are paired with their reported IC50.

Known results for compounds:
| compound | endpoint result |
| --- | --- |
| OC(CN1CCOCC1)(c1ccc(-n2cc(-c3ccnc4[nH]cnc34)cn2)nc1)C(F)(F)F (stereo not shown) [Example 1229] | < 0.1 µM |
| OCCC(c1ccc(-n2cc(-c3ccnc4[nH]cnc34)cn2)nc1)C(F)(F)F (stereo not shown) [Example 1154] | < 0.1 µM |
| CCN1CCC([C@](O)(c2ccc(-n3cc(-c4ccnc5[nH]cnc45)cn3)nc2)C(F)(F)F)C1 (stereo partly shown) [Example 1233] | < 0.1 µM |

Let us examine a further case.
What value of IC50 has been recorded for this entry: N#CCCC(c1ccc(-n2cc(-c3ccnc4[nH]cnc34)cn2)nc1)C(F)(F)F (stereo not shown) [Example 1156]
> 0.5 µM

* * *

The entries below are paired with their reported IC50.
# target system: Recombinant JAK1 (Homo sapiens, UniProt P23458)
# Construct: purchased Carna Biosciences
# method summary: JAK biochemical assay (LANCE Ultra TR-FRET), JAK1
# condition details: recombinant JAK1, TR-FRET; read-out: Biochemical Assay (μM) JAK1

| molecule | parameter | endpoint result |
| --- | --- | --- |
| O[C@](c1ccc(-n2cc(-c3ccnc4[nH]cnc34)cn2)nc1)(C1CCN(C2COC2)C1)C(F)(F)F (some centres unmarked) | IC50 | < 0.1 µM |
| N#CCc1coc(-n2cc(-c3ccnc4[nH]cnc34)cn2)n1 | IC50 | 0.046 µM |
| O=C(NC(C1CCCC1)C(F)(F)F)n1cc(-c2ccnc3[nH]c(=O)[nH]c23)cn1 (centres unmarked) | IC50 | > 1 µM |
| CCN1CC(C(O)(c2ccc(-n3cc(-c4ccnc5[nH]cnc45)cn3)nc2)C(F)(F)F)C1 (centres unmarked) | IC50 | 0.006 µM |
| N#CC(NC(=O)n1cc(-c2ccnc3[nH]c(=O)[nH]c23)cn1)c1ccccc1 (centres unmarked) | IC50 | > 0.5 µM |

What value of IC50 has been recorded for this entry: COC(CCS(C)(=O)=O)c1ccc(-n2cc(-c3ccnc4[nH]cnc34)cn2)nc1 (centres unmarked)
> 1 µM

What value of IC50 has been recorded for this entry: CC(C)S(=O)(=O)CCC(c1ccc(-n2cc(-c3ccnc4[nH]cnc34)cn2)nc1)C(F)(F)F (centres unmarked)
< 0.1 µM

What value of IC50 has been recorded for this entry: "CS(=O)(=O)Cc1ccc(-n2cc(-c3ccnc4[nH]cnc34)cn2)nc1"
0.068 µM

* * *

# target system: Recombinant JAK2 (Homo sapiens)
# Construct: purchased Carna Biosciences
# method summary: JAK biochemical assay (LANCE Ultra TR-FRET), JAK2
# condition details: recombinant JAK2, TR-FRET; read-out: Biochemical Assay (μM) JAK2
# Experimental: Recombinant JAK1, JAK2, JAK3 and TYK2 (Carna Biosciences) were used to develop biochemical assays in 50 mM HEPES pH 7.5, 1 mM EGTA, 10 mM MgCl2, 2 mM DTT and 0.01% Tween-20. […] The intensity of the light emission is proportional to the level of ULight substrate phosphorylation. Compounds which interfere with JAK enzyme activity show a lesser substrate phosphorylation and values are projected in terms of % inhibition in comparison to vehicle control.
parameter: IC50

| compound | IC50 |
| --- | --- |
| CC(C)N1CCC(C(O)(c2ccc(-n3cc(-c4ccnc5[nH]cnc45)cn3)nc2)C(F)(F)F)CC1 (centres unmarked) | > 0.03 µM |
| N#CCc1ccc(-n2cc(-c3ccnc4[nH]cnc34)cn2)cc1 | < 0.5 µM |
| CNC(=O)CCC(c1ccc(-n2cc(-c3ccnc4[nH]cnc34)cn2)nc1)C(F)(F)F (centres unmarked) | < 0.1 µM |
| CNC(=O)N1CC(C(O)(c2ccc(-n3cc(-c4ccnc5[nH]cnc45)cn3)nc2)C(F)(F)F)C1 (centres unmarked) | 0.034 µM |
| COc1cc(-c2nc3c(-c4cnn(C5COCCC5C#N)c4)ccnc3[nH]2)ccc1Cl (centres unmarked) | > 0.5 µM |

Query the reported IC50 for Recombinant JAK2 (Homo sapiens); item: CS(=O)(=O)CCC(c1ccc(-n2cc(-c3ccnc4[nH]cnc34)cn2)nc1)C(F)(F)F (centres unmarked)
0.108 µM

Query the reported IC50 for Recombinant JAK2 (Homo sapiens); item: N#CC(c1ccc(-n2cc(-c3ccnc4[nH]cnc34)cn2)nc1)N1CCS(=O)(=O)CC1 (centres unmarked)
> 0.1 µM

Query the reported IC50 for Recombinant JAK2 (Homo sapiens); item: CC(=O)N1CCC(C(O)(c2ccc(-n3cc(-c4ccnc5[nH]cnc45)cn3)nc2)C(F)(F)F)CC1 (centres unmarked)
0.38 µM
